# assay-procedure: Blood pharmacokinetics after oral dosing (fluorescence HPLC, noncompartmental WinNonlin model)
# Format: in vivo, human
# experimental-setup: human, whole blood; single oral 700 mg adjustment dose, median (range); read-out: t½ (converted)
readout: half-life (days)
Write the value in days as a bare number.

**Q:** Please report the recorded half-life for CCN(CC)CCCNc1ccnc2cc(Cl)ccc12 [AQ-13] .
**A:** 17.9

====

# assay-procedure: Blood pharmacokinetics after oral dosing (fluorescence HPLC, noncompartmental WinNonlin model)
# Type: in vivo, human
# experimental-setup: human, in vivo; single oral 600 mg dose, whole blood, median (range); read-out: t½ (terminal elimination half-life) (converted)
readout: half-life (days)
Write the value in days as a bare number.

**Q:** Please report the recorded half-life for CCN(CC)CCCC(C)Nc1ccnc2cc(Cl)ccc12 (stereo not shown) [CQ, chloroquine] .
**A:** 23.3

====

# assay-procedure: Blood pharmacokinetics after oral dosing (fluorescence HPLC, noncompartmental WinNonlin model)
# Type: in vivo, human
# experimental-setup: human, whole blood, oral; after 700 mg AQ-13, median (range); read-out: t1/2 of metabolite (converted)
readout: half-life (days)
Write the value in days as a bare number.

**Q:** Please report the recorded half-life for CCNCCCNc1ccnc2cc(Cl)ccc12 .
**A:** 12.3

====

# assay-procedure: Blood pharmacokinetics after oral dosing (fluorescence HPLC, noncompartmental WinNonlin model)
# Assay type: in vivo, human
# experimental-setup: human, 1750 mg; 1,750 mg oral over 3 d (700+700+350 mg), whole blood, median (range); read-out: Cmax
readout: Cmax

**Q:** Please report the recorded Cmax for CCN(CC)CCCNc1ccnc2cc(Cl)ccc12 [AQ-13] .
**A:** 3000 nM

====

# assay-procedure: Blood pharmacokinetics after oral dosing (fluorescence HPLC, noncompartmental WinNonlin model)
# Format: in vivo, human
# experimental-setup: human, whole blood; after 600 mg oral dose of parent drug, median (range); read-out: t1/2 of metabolite (converted)
# Description: Study drugs were administered in the GCRC on an empty stomach between 8 and 9 AM the morning after admission (after fasting for ≥ 10 h).
readout: half-life (days)
Write the value in days as a bare number.

molecule: CCNCCCC(C)Nc1ccnc2cc(Cl)ccc12 (centres unmarked)
unit-abbreviation: days
half-life: 31.2

**Q:** Please report the recorded half-life for CCNCCCNc1ccnc2cc(Cl)ccc12 .
**A:** 11.1

====

# assay-procedure: Blood pharmacokinetics after oral dosing (fluorescence HPLC, noncompartmental WinNonlin model)
# Type: in vivo, human
# experimental-setup: human, in vivo, 1500 mg; 1,500 mg oral over 3 d (600+600+300 mg), whole blood, median (range); read-out: Cmax
readout: Cmax (µM)
Write the value in µM as a bare number.

**Q:** Please report the recorded Cmax for CCN(CC)CCCC(C)Nc1ccnc2cc(Cl)ccc12 (stereo not shown) .
**A:** 3.4

====

# assay-procedure: Blood pharmacokinetics after oral dosing (fluorescence HPLC, noncompartmental WinNonlin model)
# Assay type: in vivo, human
# experimental-setup: human, whole blood; single oral 700 mg adjustment dose, median (range); read-out: Tmax
readout: Tmax (h)
Write the value in h as a bare number.

**Q:** Please report the recorded Tmax for CCN(CC)CCCNc1ccnc2cc(Cl)ccc12 .
**A:** 4

====

# assay-procedure: Blood pharmacokinetics after oral dosing (fluorescence HPLC, noncompartmental WinNonlin model)
# Assay type: in vivo, human
# experimental-setup: human, whole blood, 1750 mg; 1,750 mg oral over 3 d, median (range); read-out: t½ (converted)
readout: half-life

**Q:** Please report the recorded half-life for CCN(CC)CCCNc1ccnc2cc(Cl)ccc12 .
**A:** 12.9 days
